Data provenance is patent US20150329642A1.

Record form. Attribute: residual binding, % of no competitor. Fill in for each entry.
molecular target: T1, cMetECDHis (human, UniProt P08581 25-932, limits assumed, biotinylated in the cross-block ELISA of Example 17); experiment: cross-block ELISA; competitor 098
T1 construct: Expressed in HEK-293F cells; also called soluble cMetECDHis; biotinylated cMetECDHis
One number for each entry, in %.

Sample records with residual binding, % of no competitor:
binder: anti-c-Met HuMab 045 (IgG1) (antibody, V domains shown, also called TH1016-045; PC1016-045) VH: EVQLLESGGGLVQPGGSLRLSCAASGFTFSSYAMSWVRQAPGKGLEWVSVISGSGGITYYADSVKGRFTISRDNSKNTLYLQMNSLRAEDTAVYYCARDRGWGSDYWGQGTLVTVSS VL: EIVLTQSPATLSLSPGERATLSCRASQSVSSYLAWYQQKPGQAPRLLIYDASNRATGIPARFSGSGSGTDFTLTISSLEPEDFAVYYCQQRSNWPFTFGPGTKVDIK
readout_name: residual binding, % of no competitor
value_units: %
val: 76.4

binder: IgG1-024 (antibody, V domains shown, also called TH1016-024; PC1016-024) VH: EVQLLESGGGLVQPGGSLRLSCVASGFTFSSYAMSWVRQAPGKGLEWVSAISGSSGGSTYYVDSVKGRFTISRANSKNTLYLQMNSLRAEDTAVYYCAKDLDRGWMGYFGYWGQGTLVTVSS VL: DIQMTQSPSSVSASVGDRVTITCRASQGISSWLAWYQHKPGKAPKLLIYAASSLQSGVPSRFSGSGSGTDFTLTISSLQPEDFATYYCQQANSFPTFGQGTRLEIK
readout_name: residual binding, % of no competitor
value_units: %
val: 10.4

We now examine a further binder.
Per the records, this binder ( anti-c-Met HuMab 181 (IgG1) (antibody, V domains shown, also called TH1016-181; PC1016-181) VH: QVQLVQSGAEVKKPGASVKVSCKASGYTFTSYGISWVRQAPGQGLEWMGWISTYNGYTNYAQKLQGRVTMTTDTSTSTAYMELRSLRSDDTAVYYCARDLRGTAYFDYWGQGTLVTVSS VL: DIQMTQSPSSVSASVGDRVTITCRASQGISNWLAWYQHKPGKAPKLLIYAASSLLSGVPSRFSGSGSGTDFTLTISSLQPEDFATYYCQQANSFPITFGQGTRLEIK ) has residual binding, % of no competitor equal to 5.1
